# System Under Test: T1, recombinant human PAD4 (human, UniProt Q9UM07 1-663)
# T1 construct: also called rhPAD4; hPAD4
# T1 sequence (Q9UM07 whole entry): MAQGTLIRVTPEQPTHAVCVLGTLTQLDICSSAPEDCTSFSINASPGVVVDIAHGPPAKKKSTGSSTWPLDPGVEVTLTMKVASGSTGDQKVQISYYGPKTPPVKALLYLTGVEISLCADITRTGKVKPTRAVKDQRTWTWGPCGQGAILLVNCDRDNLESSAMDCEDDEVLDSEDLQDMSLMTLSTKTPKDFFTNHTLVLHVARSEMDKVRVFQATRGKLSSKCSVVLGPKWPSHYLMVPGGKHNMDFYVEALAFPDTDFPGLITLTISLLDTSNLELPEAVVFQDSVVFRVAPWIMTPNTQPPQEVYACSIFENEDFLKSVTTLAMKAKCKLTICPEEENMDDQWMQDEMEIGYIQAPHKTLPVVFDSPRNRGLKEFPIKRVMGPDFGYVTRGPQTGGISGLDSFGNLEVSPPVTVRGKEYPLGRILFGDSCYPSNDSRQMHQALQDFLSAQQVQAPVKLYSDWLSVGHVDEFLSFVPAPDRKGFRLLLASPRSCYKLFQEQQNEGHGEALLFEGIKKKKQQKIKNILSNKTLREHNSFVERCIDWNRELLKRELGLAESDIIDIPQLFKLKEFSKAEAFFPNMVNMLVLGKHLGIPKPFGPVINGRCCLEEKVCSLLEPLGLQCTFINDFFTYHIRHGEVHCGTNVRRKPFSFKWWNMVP
# Assay Overview: SPR 37 C, captured antibody, PAD4 analyte, 2 mM EDTA
Quick reference for Kd among some binders
The reply should contain only the number, in nM.

{"Binder": "hz20-7 (antibody, IgG1, V domains shown, also called clone 20-based hz20-7 antibody) VH: QVQLVQSGAEVKKPGASVKVSCKASGYTFTNYGISWVRQAPGQGLEWMGEIYPRSGNTYHNEKFKDRVTMTTDTSTSTAYMELRSLRSDDTAVYYCARSMITTRYWYFDVWGKGTTVTVSS VL: DIVMTQSPDSLAVSLGERATINCRASESVDTYGNSFMHWYQQKPGQPPKLLIYLASNLESGVPDRFSGSGSGTDFTLTISSLQAEDVAVYYCQQNNEDPLTFGQGTKLEIK", "Reported Result": 0.5}

Below: the item to evaluate.
Input: Dear colleague, please send me the reported Kd for hz20-2 (antibody, IgG1, V domains shown, also called clone 20-based hz20-2 antibody) VH: QVQLVQSGAEVKKPGASVKVSCKASGYTFTNYGISWVRQAPGQGLEWMGEIYPRSGNTYHNEKFKDRVTMTTDTSTSTAYMELRSLRSDDTAVYYCARSMITTRYWYFDVWGQGTLVTVSS VL: DIQMTQSPSSLSASVGDRVTITCRASESVDTYGNSFMHWYQQKPGKAPKLLIYLASNLESGVPSRFSGSGSGTDFTLTISSLQPEDFATYYCQQNNEDPLTFGQGTKVEIK when you can.
Output: 1
